# IC50 per record follows
biological target: Abl SH2 (Homo sapiens); construct: glutathione-S-transferase(GST)-Abl SH2 fusion protein; assay: Inhibition of 125I-phosphopeptide binding to immobilized Abl SH2; conditions: IC50, Abl SH2 Binding, competitive 125I-phosphopeptide displacement, GST-Abl SH2 fusion protein, pH 7.5, room temperature, 20 minutes
Sequence (P00519 127-217 limits assumed): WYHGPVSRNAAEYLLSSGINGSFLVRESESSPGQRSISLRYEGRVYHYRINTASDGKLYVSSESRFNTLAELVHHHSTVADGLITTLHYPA

{"columns": ["MOLECULE", "IC50"],
 "data": [
  ["CCCC(NC(=O)[C@H](Cc1ccc(OP(=O)(O)O)cc1)NC(C)=O)c1ccc(OCC2CCCCC2)c(C(N)=O)c1 (mixture of isomers)", "7.4 µM"],
  ["CCC(CC)(NC(=O)[C@H](Cc1ccc(OP(=O)(O)O)cc1)NC(C)=O)C(=O)NCCCc1ccccc1", "20 µM"]
]}

Kindly review the next molecule as well.
Name the reported IC50 value associated with the molecule CC(=O)N[C@@H](Cc1ccc(OP(=O)(O)O)cc1)C(=O)NCc1ccc(OC(C)CC2CCCCC2)c(C(N)=O)c1 (mixture of isomers) 11 µM
